Every entry's value here was drawn from ChEMBL document CHEMBL4513216.

# testMethodNotes: Toxicity liver stage against HepG2, at 10uM
# Assay type: cell-based
# Parameters: test concentration 10 uM, cell line HepG2-A16-CD81EGFP
# experimentalSetup: human, HepG2-A16-CD81EGFP cells; read-out: INHIBITION
# maps each entry to its cytotoxicity at 10 µM
Could you give me the number in %? Just the number is fine.

Please review the entries below; each comes with its answer.
1. CS(=O)(=O)NCc1ccc(C(=O)NCc2ccc3c(c2)CCC3)o1 :: -5.61
2. Cc1cnn(CCNCC(=O)Nc2ccc(Cl)cn2)c1 :: 1.93
3. COc1ccc(-c2nnsc2C(=O)N2CCOCC2)cc1 :: 3.03
4. CCC1CN(C)c2ccccc2CN1C(=O)CCn1cncn1 (configuration not stated) :: -1.87
5. O=C1N(CC2CCCCC2)CCCC1(O)CN1CCc2[nH]ncc2C1 (configuration not stated) :: -5.84

Dear colleague, I am looking for the recorded cytotoxicity at 10 µM of the following compound: O=C(NC1CCCN(c2ccccc2F)C1)c1ccon1 (configuration not stated)
-6.43

What does the data say about its cytotoxicity at 10 µM? Entry: O=C(c1ccccc1F)N1C[C@@H]2COC[C@]2(COCc2cccnc2)C1
6.27

Need cytotoxicity at 10 µM of Cc1nn(CC(=O)N2CCN(c3ccccc3F)CC2)c(C)c1Cl , thanks.
-12.6

What does the data say about its cytotoxicity at 10 µM? Entry: CCN1CCn2c(C)cnc2C12CCN(C(=O)CC(C)C)CC2
-5.93

Suppose we examine the compound CN(C)c1nc(O)cc(C2CCN(C(=O)Cc3ccccn3)C2)n1 (configuration not stated) ; what cytotoxicity at 10 µM value has been reported?
-0.399

----------
# testMethodNotes: Toxicity liver stage against HepG2, at 10uM
# Type: cell-based
# Parameters: test concentration 10 uM, cell line HepG2-A16-CD81EGFP
# experimentalSetup: human, HepG2-A16-CD81EGFP cells; read-out: INHIBITION
measurementName: cytotoxicity at 10 µM (%)
Write the number in % without appending the unit.

Here is how some molecules turned out for cytotoxicity at 10 µM.
1. N#Cc1ccc(N2CCCN(CCCn3cncn3)CC2)cc1 :: -8.9
2. COc1ccncc1NC(=O)C1(c2ccccc2)CC1 :: 2.72
3. Cc1cnc(-c2nc(C3CCN(Cc4ccccc4O)CC3)no2)cn1 :: 3.66

cytotoxicity at 10 µM lookup needed for CC(C)COc1cncc(NCCc2nnc3ccccn23)n1 , thanks.
7.55

I would be grateful if you could share the reported cytotoxicity at 10 µM for O=C(NC1CC(=O)N(C2CC2)C1)c1cccs1 (configuration not stated) .
17.5

May I ask what cytotoxicity at 10 µM has been recorded for Cc1nnc(NC(=O)CN(C)CC2CCCN2c2cccnn2)s1 (configuration not stated) ?
-15

Record request: cytotoxicity at 10 µM value, item COCCC(=O)N1CCCC1c1nc(O)cc(C(C)C)n1 (configuration not stated)
-26.4

Form field: reported cytotoxicity at 10 µM of Cc1cc(CC(C)NC(=O)c2cccc(CC3CCNCC3)c2)[nH]n1 (configuration not stated)
11.1

----------
# testMethodNotes: Toxicity liver stage against HepG2, at 10uM
# Type: cell-based
# Set-up: test concentration 10 uM, cell line HepG2-A16-CD81EGFP
# experimentalSetup: human, HepG2-A16-CD81EGFP cells; read-out: INHIBITION
measurementName: cytotoxicity at 10 µM (%)
Give the number; % is assumed, so skip it.

Use these answered entries as a reference point.
1. Cc1ccc(C(C)NC(=O)CSCC(N)=O)cc1 (stereo unspecified) :: 3.37
2. O=C1[C@@H]2CC[C@@H](CN(Cc3ccccc3OC(F)F)C2)N1CC1CC1 :: -6.17

Data request, read-out cytotoxicity at 10 µM, for O=C(NCc1ccccn1)[C@@]12CCO[C@@H]1CCN(C1CCCC1)C2
-105

State the recorded cytotoxicity at 10 µM for this entry: Cn1cnc2cc(CCC(=O)Nc3nc[nH]n3)ccc21
4.44

Requested read-out: cytotoxicity at 10 µM. Entry: COC1CCN(S(=O)(=O)N2C[C@H](c3ccccc3)[C@@H](N)C2)CC1
11.8

State the recorded cytotoxicity at 10 µM for this entry: O=C(NCc1cccnc1)[C@@H]1CC[C@@H]2[C@@H](CCN2c2ncccn2)O1
-68

Reported cytotoxicity at 10 µM for COCCNC(=O)c1ccc2c(=O)n3c(nc2c1)CCCCC3 : what is it?
5.53

What value of cytotoxicity at 10 µM has been reported for the following molecule? CN(Cc1ncnn1C1Cc2ccccc2C1)C1CCS(=O)(=O)C1 (stereo unspecified)
-2.14

----------
# testMethodNotes: Toxicity liver stage against HepG2, at 10uM
# Format: cell-based
# Parameters: test concentration 10 uM, cell line HepG2-A16-CD81EGFP
# experimentalSetup: human, HepG2-A16-CD81EGFP cells; read-out: INHIBITION
Reported cytotoxicity at 10 µM by item:
Kindly write the number and append the unit.

1. CC(=O)NCc1cc(-c2cccs2)n(C2CCCC2)n1 :: 3.29%
2. Cc1ccc(S(=O)(=O)Nc2ccc(=O)n(C)c2)cc1 :: 1.07%
3. CCN(Cc1ccc2c(c1)OCO2)C(=O)c1ccc(C)[nH]c1=O :: -7.21%

// query cytotoxicity at 10 µM value for entry O=C(c1ccc(S(=O)(=O)N2CCNCC2)cc1)N1CCCC(O)C1 (centres undefined)
8.48%

What value of measured cytotoxicity at 10 µM is listed for O=C(c1ccccc1O)N1CCN(C(=O)C2CCC2)CC1 ?
2.42%

Tell me the measured cytotoxicity at 10 µM of CCN(CC)S(=O)(=O)c1ccc(CCC(=O)NCc2cc(C)on2)cc1 , please.
-3.09%

Report cytotoxicity at 10 µM for O=C(c1coc(-c2ccccc2)n1)N1CCCC1 please.
5.47%

Reported cytotoxicity at 10 µM, molecule O=C(CN1CCOC(CNc2cccnn2)C1)NCc1ccccn1 (centres undefined) : ____
-0.945%

What does the data say about its cytotoxicity at 10 µM? Entry: COc1cccc(CN2CCC3(CC2)CCN(c2ncc(C)cn2)C3)c1
-3.55%

----------
# testMethodNotes: Toxicity liver stage against HepG2, at 10uM
# Type: cell-based
# Design: test concentration 10 uM, cell line HepG2-A16-CD81EGFP
# experimentalSetup: human, HepG2-A16-CD81EGFP cells; read-out: INHIBITION
measurementName: cytotoxicity at 10 µM (%)
// note: answer is a bare numeric in %

// below: answered compounds
1. Cc1[nH]c2ccc(CNc3cc(C#N)ccn3)cc2c1C :: -8.4
2. O=C(NCC1CC1)[C@@H]1C[C@@H]2CCN(Cc3ccoc3)C[C@@H]2O1 :: -2.65
3. Cc1ccc(N2CCCC(NCC(=O)NC(C3CC3)C3CC3)C2)nn1 (centres undefined) :: -2.8
4. Cc1cnn(CC2CCCCN2c2ncnc3ccccc23)c1 (centres undefined) :: 8.24
5. CCc1csc(C2CCCN(C(=O)C3=NN(CC)C(=O)CC3)C2)n1 (centres undefined) :: -6.26
6. CCCNC1(c2ccc(Cl)cc2)CCOCC1 :: -0.0529
7. CCS(=O)(=O)N1CCC2(CC(=O)N(c3cncnc3)C2)C1 (centres undefined) :: -0.298
8. Cc1cc(=O)n2ncnc2n1CC(O)COCc1ccccc1Cl (centres undefined) :: 3.52

Param item = CC(Cn1ccnc1)NC(=O)C1(c2ccc(F)cc2)CC1 (centres undefined) ; retrieve measured cytotoxicity at 10 µM.
-9.62

// lookup cytotoxicity at 10 µM for Cc1n[nH]c(C)c1NC(=O)CN1CCN(c2nccs2)C(C)C1 (centres undefined)
-17.6

For the compound O=c1c2c(ncn1CCCO)nc1n2CCC1 , what cytotoxicity at 10 µM is on record?
-3.89

Consider the compound shown here: CCNC(=O)N1C[C@@H]2OCC(=O)N(CC3CCCCC3)[C@@H]2C1 What is its recorded cytotoxicity at 10 µM?
-4.04

----------
cytotoxicity at 10 µM reference
# testMethodNotes: Toxicity liver stage against HepG2, at 10uM
# Type: cell-based
# Set-up: test concentration 10 uM, cell line HepG2-A16-CD81EGFP
# experimentalSetup: human, HepG2-A16-CD81EGFP cells; read-out: INHIBITION

1. NC(=O)c1ccc(OCC(=O)N2CCCC(n3cccn3)C2)cc1 (configuration not stated) :: 1.3%
2. Cc1cc(C)n(CC2CCCN2C(=O)c2cccn3ccnc23)n1 (configuration not stated) :: -7.45%
3. Fc1ccc(COCC2CCN(Cc3ccccn3)CC2)cc1 :: -2.67%
4. Cc1nn2cnnc2c(C)c1CCC(=O)Nc1nc2c(s1)CCC2 :: -0.674%
5. COc1ccc(C(C)N2CCC(OC)CC2)cc1Cl (configuration not stated) :: -53.2%

Quick one: cytotoxicity at 10 µM of Cc1nccn1CCC(=O)N1CCCN(c2ccccc2)CC1 ?
-6.08%

I would be grateful if you could share the reported cytotoxicity at 10 µM for CCN(CC)S(=O)(=O)c1cc(NC(=O)CCc2cscn2)ccc1C .
-0.25%

Query (compound): CCC(C)(NCc1nnc(C(C)(C)C)o1)c1nccs1 (configuration not stated) ; field requested: cytotoxicity at 10 µM
19.2%

Item Cc1cnc2c(S(=O)(=O)NCC3CCOC3)cccc2c1 (configuration not stated) has what recorded cytotoxicity at 10 µM?
-6.94%

Query (compound): Cc1ncc(CNC(=O)Cc2cccs2)c(C2CCCN2C)n1 (configuration not stated) ; field requested: cytotoxicity at 10 µM
-0.279%

Please give the measured cytotoxicity at 10 µM for this compound: CC(C)Oc1ccccc1-c1cc(CN)ccc1F
-2.69%

Param item = Cn1cccc1C(=O)N[C@@H]1CN(CC2CC2)[C@@H]2COC[C@@H]21 ; retrieve measured cytotoxicity at 10 µM.
1.66%
